Reported MIC values for a set of molecules
Test system: Staphylococcus aureus
protocol-notes: Antimicrobial activity against methicillin-resistant Staphylococcus aureus ATCC 33591 assessed as inhibition of visible bacterial growth incubated for 18 hrs by broth-dilution method
Type: functional
Peptide text beside a SMILES is read from it. * marks the point of attachment. X8 = NC(=O)CN(C[C@H](Cc1ccccc1)N*)S(=O)(=O)c1cc(C(F)(F)F)cc(C(F)(F)F)c1
Your answer is read as mg/L, so omit the unit and give the number.

C[C@@H](O)[C@H]1C(=O)N2C(C(=O)O)=C(SCCNC=N)C[C@H]12 [IMIPENEM ANHYDROUS] | 32
CC(C)C[C@H](NC(=O)[C@H](C)NC(=O)[C@H](CCCCN)NC(=O)[C@H](CC(C)C)NC(=O)[C@@H](N)Cc1ccccc1)C(=O)N[C@@H](CCCCN)C(=O)N[C@@H](CCCCN)C(=O)N[C@@H](Cc1ccccc1)CN(CC(N)=O)S(=O)(=O)c1cc(C(F)(F)F)cc(C(F)(F)F)c1 (H-FLKALKK-X8) | 16

# input for lookup
According to the records, this molecule `CC1(C)S[C@@H]2[C@H](NC(=O)[C@H](N)c3ccc(O)cc3)C(=O)N2[C@H]1C(=O)O` displays MIC of 128

###

Test system: Erythrocyte
protocol-notes: Hemolytic activity against mouse Red blood cell incubated for 1 hr
Format: toxicity, cell-based
Numbered stars: 1 amine (or outer) side, 2 acyl side, 3 side chain; on linkers, the order of the positions; unused ones are H or OH. Square brackets hold non-standard residues; d marks the D form. Peptide text beside a SMILES is read from it. * marks the point of attachment. X4 = N[C@@H](Cc1ccccc1)CN(CC(=O)[*:2])[*:1]; X7 = O=S(=O)(c1cc(C(F)(F)F)cc(C(F)(F)F)c1)*; X2 = CC(C)C[C@H](N)CN(CC(=O)[*:2])[*:1]; X1 = O=S(=O)(c1ccc(C(F)(F)F)cc1)*
quantity-name: MHC
The reply must contain the numeric value and, after it, the unit.

Known MHC results, listed for orientation:
CC(C)C[C@H](NC(=O)[C@H](CC(C)C)NC(=O)[C@H](CCCCN)NC(=O)[C@H](CCCCN)NC(=O)[C@H](CC(C)C)NC(=O)[C@H](C)NC(=O)[C@H](CCCCN)NC(=O)CN(C[C@@H](N)Cc1ccccc1)S(=O)(=O)c1cc(C(F)(F)F)cc(C(F)(F)F)c1)C(N)=O (X7-[X4]KALKKLL-NH2) | 128 µg/mL
CC(C)C[C@H](NC(=O)[C@H](CC(C)C)NC(=O)[C@H](CCCCN)NC(=O)[C@H](CCCCN)NC(=O)[C@H](CC(C)C)NC(=O)[C@H](C)NC(=O)[C@H](CCCCN)NC(=O)CN(C[C@@H](N)Cc1ccccc1)S(=O)(=O)c1ccc(C(F)(F)F)cc1)C(N)=O (X1-[X4]KALKKLL-NH2) | 256 µg/mL
CC(C)C[C@H](N)CN(CC(=O)N[C@@H](CCCCN)C(=O)N[C@@H](CC(C)C)C(=O)N[C@@H](CC(C)C)C(=O)N[C@@H](CCCCN)C(=O)N[C@@H](CCCCN)C(=O)N[C@@H](CC(C)C)C(=O)N[C@@H](CC(C)C)C(N)=O)S(=O)(=O)c1ccc(C(F)(F)F)cc1 (X1-[X2]KLLKKLL-NH2) | 256 µg/mL

API: the following record is the query input.
Form: compound = CC(C)C[C@H](NC(=O)[C@H](CC(C)C)NC(=O)[C@H](CCCCN)NC(=O)[C@H](CCCCN)NC(=O)[C@H](CC(C)C)NC(=O)[C@H](CC(C)C)NC(=O)[C@H](CCCCN)NC(=O)CN(C[C@@H](N)Cc1ccccc1)S(=O)(=O)c1cc(C(F)(F)F)cc(C(F)(F)F)c1)C(N)=O (X7-[X4]KLLKKLL-NH2) ; MHC = 32 µg/mL
